Read-out: solute carrier (SLC22A1), SLC22A1 (gene 6580)
Experiment: LTEA_HepaRG_SLC22A1: Life Technologies and Expression Analysis (LTEA) Assay for solute carrier (SLC22A1) using HepaRG (AID 2283524)
Conditions: mRNA level, 48 h; actives raise or lower the signal
Activity calls are given as the source filed them. Rule for the calls: active = hit-call score of the fitted dose curve at least 0.9, where 1 is the maximum; inactive = score below 0.9.
Your answer must be one of the following: active, inactive

Past entries and their recorded results:
MOLECULE: CNC(=O)Oc1cccc(N=CN(C)C)c1
CATEGORY: inactive

MOLECULE: OCCOc1ccccc1
CATEGORY: inactive

MOLECULE: COP(=O)(OC)OC=C(Cl)Cl
CATEGORY: inactive

MOLECULE: O=C(O)CCCOc1ccc(Cl)cc1Cl
CATEGORY: inactive

MOLECULE: CC1(c2ccc(Oc3ccccc3)cc2)OC(=O)N(Nc2ccccc2)C1=O (stereo not given)
CATEGORY: active

MOLECULE: O=[N+]([O-])/N=C1\NCCN1Cc1ccc(Cl)nc1
CATEGORY: active

MOLECULE: C#CCN1C(=O)COc2cc(F)c(N3C(=O)C4=C(CCCC4)C3=O)cc21
CATEGORY: inactive

MOLECULE: CNC(=O)CSP(=S)(OC)OC
CATEGORY: inactive

MOLECULE: ClC1C(Cl)C(Cl)C(Cl)C(Cl)C1Cl (stereo not given)
CATEGORY: inactive

MOLECULE: CC[C@H](C)[C@H]1O[C@]2(C=C[C@@H]1C)C[C@@H]1C[C@@H](C/C=C(\C)[C@@H](O[C@H]3C[C@H](OC)[C@@H](O[C@H]4C[C@H](OC)[C@@H](O)[C@H](C)O4)[C@H](C)O3)[C@@H](C)/C=C/C=C3\CO[C@@H]4[C@H](O)C(C)=C[C@@H](C(=O)O1)[C@]34O)O2 (tested in a mixture with another compound)
CATEGORY: active

**Query** Call for entry "CNC(=O)/C=C(\C)OP(=O)(OC)OC" :
**Result** inactive

**Query** Record request — test call for "N#CN"
**Result** inactive

**Query** Identify the outcome logged in this assay for the molecule shown: "CCOCN(C(=O)CCl)c1c(C)cccc1CC"
**Result** active

**Query** How did this test come out for "C[C@H]1[C@H](c2ccc(Cl)cc2)SC(=O)N1C(=O)NC1CCCCC1" ?
**Result** active

**Query** Fill in: this test's call for "COc1nn(CSP(=S)(OC)OC)c(=O)s1" is ___
**Result** inactive

###

Test: BSK_3C_Vis: BioMAP Diversity Plus: 3C Assay for Morphology Visualization (AID 2283025);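 note: fitted both ways so gain or loss versus DMSO counts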
Settings: primary human endothelial cells (HUVEC)
Activity calls are given as the source filed them. Rule for the calls: active = hit-call score of the fitted dose curve at least 0.9, where 1 is the maximum; inactive = score below 0.9.
Your response should consist of one outcome taken from 1 (yes) (active), 0 (no) (inactive)

Answered examples (3):
MOLECULE: COP(=S)(OC)Oc1ccc(SC)c(C)c1
CATEGORY: 0 (no)
--
MOLECULE: COP(=S)(OC)Oc1ccc([N+](=O)[O-])cc1
CATEGORY: 1 (yes)
--
MOLECULE: CC1(c2ccc(Oc3ccccc3)cc2)OC(=O)N(Nc2ccccc2)C1=O (centres undefined)
CATEGORY: 1 (yes)

**Query** Assay outcome for "C#CCN1C(=O)COc2cc(F)c(N3C(=O)C4=C(CCCC4)C3=O)cc21" : what was it?
**Result** 0 (no)
